I'd appreciate it if you could supply Lck activation above control (1 μM) values for the items below.
# Test System: Lck (Homo sapiens)
# Construct: purchased Eurofins Pharma Discovery Services UK Limited
# Sequence (P06239 whole entry): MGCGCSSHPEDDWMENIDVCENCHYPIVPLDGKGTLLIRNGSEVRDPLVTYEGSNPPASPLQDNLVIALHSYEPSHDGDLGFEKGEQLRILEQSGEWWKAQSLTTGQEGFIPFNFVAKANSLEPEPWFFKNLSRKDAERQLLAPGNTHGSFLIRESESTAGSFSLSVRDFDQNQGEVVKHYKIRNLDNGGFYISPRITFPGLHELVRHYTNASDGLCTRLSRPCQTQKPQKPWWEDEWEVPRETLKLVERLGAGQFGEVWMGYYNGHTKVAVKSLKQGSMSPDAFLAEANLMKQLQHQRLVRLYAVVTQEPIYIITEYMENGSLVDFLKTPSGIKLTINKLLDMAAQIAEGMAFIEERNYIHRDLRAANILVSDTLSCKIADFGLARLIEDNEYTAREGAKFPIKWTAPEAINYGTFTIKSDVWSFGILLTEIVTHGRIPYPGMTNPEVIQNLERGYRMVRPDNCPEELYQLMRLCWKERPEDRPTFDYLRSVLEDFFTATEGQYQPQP
# Assay Remarks: In vitro Lck activation kinase study (Eurofins)
# Assay type: biochemical
# Conditions: 1 μM; Table 7
Non-standard residues stand in square brackets, D forms with d. Residues, ends and D or L forms follow the SMILES beside them. ξ: configuration not given here. ξGly(decyl) = CCCCCCCCCCC(N)C(=O)O
Numbers only, in %.

Check out these entries, answers already filled in.
• CCCCCCCCCCC(N)C(=O)NC(CCCCCCCCCC)C(=O)O (stereo not shown) [H-(2Adod)2-OH] = 0
• CCCCCCCCCCC(N)C(=O)NC(CCCCCCCCCC)C(=O)NC(CCCCCCCCCC)C(=O)NC(CCCCCCCCCC)C(=O)O (stereo not shown) [H-(2Adod)4-OH] (H-[ξGly(decyl)][ξGly(decyl)][ξGly(decyl)][ξGly(decyl)]-OH) = 0
• CCCCCCCCCCC(N)C(=O)O (stereo not shown) [H-(2Adod)1-OH] = 0

# get_value(readout='Lck activation above control (1 μM)', item= CCCCCCCCCCC(N)C(=O)NC(CCCCCCCCCC)C(=O)NC(CCCCCCCCCC)C(=O)O (stereo not shown) [H-(2Adod)3-OH] )
0
